study target: GPX4 (glutathione peroxidase 4) (Homo sapiens, UniProt P36969, U73C)
Sequence (P36969 33-197 U73C): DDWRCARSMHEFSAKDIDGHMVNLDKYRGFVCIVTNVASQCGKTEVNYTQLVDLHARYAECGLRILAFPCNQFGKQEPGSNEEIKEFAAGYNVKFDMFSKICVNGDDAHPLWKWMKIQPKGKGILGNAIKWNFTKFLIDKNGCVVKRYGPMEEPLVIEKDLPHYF
protocol description: SPR
value type: pKd
// scale note: pKd = -log10(conc_M); give the bare number

Lab book: pKd of COC(=O)c1ccc([C@H]2c3[nH]c4ccccc4c3C[C@H](C(=O)OC)N2C(C)=O)cc1 [RSL3-minus-Cl] noted as 4.22

Data credit: paper PMC9772252
